Provenance of the data: ChEMBL document CHEMBL4350967

target under test: Cannabinoid receptor 1 (Homo sapiens)
method description: Positive allosteric modulation of human CB1 receptor expressed in CHOK1 cells assessed as increase in CP55940-induced beta-arrestin recruitment at 1 uM preincubated for 30 mins followed by CP55940 addition and measured after 90 to 180 mins by PathHunter assay relative to CP55940
Format: cell-based
Would you mind telling me the reported Activity of each entry?

Req: Give recorded Activity with Cannabinoid receptor 1 (Homo sapiens) for the following molecule: O=[N+]([O-])CC(c1cccs1)c1c(-c2ccc(F)cc2)[nH]c2cc(Cl)ccc12 (racemic)
Resp: < 50%

Req: What do you have for O=C(O)c1ccc(-c2[nH]c3cc(Cl)ccc3c2C(C[N+](=O)[O-])c2cccs2)cc1 (racemic) ?
Resp: < 50%

Req: Try O=C(O)CC(c1ccccc1)c1c(-c2ccccc2)[nH]c2ccccc12 (single isomer, unassigned; (+)) next.
Resp: < 50%

---

target under test: Cannabinoid receptor 1 (Homo sapiens)
method description: Positive allosteric modulation of human CB1 receptor expressed in CHOK1 cells assessed as increase in CP55940-induced beta-arrestin recruitment preincubated for 30 mins followed by CP55940 addition and measured after 90 to 180 mins by PathHunter assay
Assay type: cell-based
recorded metric: pEC50
Remember, pEC50 is on a log scale: it is -log10 of the molar concentration.

Req: # get_value(readout='pEC50', item= N#Cc1ccc2c(C(CC(F)(F)F)c3cccs3)c(-c3ccccc3)[nH]c2c1 (racemic) )
Resp: 6.75

Req: Also check O=[N+]([O-])CC(c1cccs1)c1c(-c2ccccc2)[nH]c2cc(Cl)ccc12 (racemic)
Resp: 6.34

Req: Another compound to check: O=[N+]([O-])CC(c1cccs1)c1c(-c2ccccc2)[nH]c2cc(C(F)(F)F)ccc12 (racemic)
Resp: 6.55

Req: Check Cc1ccc2c(C(C[N+](=O)[O-])c3cccs3)c(-c3ccccc3)[nH]c2c1 (racemic) too.
Resp: 6.55

---

target under test: UniProt:P21554
method description: Agonist activity at human Gi/Go-coupled CB1 receptor expressed in CHOK1 cells assessed as inhibition of forskolin-stimulated cAMP production measured after 30 mins by Hit-hunter assay
recorded metric: EC50 (µM)
Field: numeric (µM). Do not append units.

Req: Query: EC50; subject: N#Cc1ccc2c([C@H](CC(F)(F)F)c3cccs3)c(-c3ccccc3)[nH]c2c1
Resp: 0.076

Req: N#Cc1ccc2c([C@@H](CC(F)(F)F)c3cccs3)c(-c3ccccc3)[nH]c2c1 ?
Resp: 0.029

Req: Cc1ccc2c(C(C[N+](=O)[O-])c3cccs3)c(-c3ccccc3)[nH]c2c1 (racemic) ?
Resp: 0.032

Req: Param item: N#Cc1ccc2c(C(C[N+](=O)[O-])c3cccs3)c(-c3ccccc3)[nH]c2c1 (single isomer, unassigned; (-))
Resp: 0.046

Req: Next entry: N#Cc1ccc2c(C(C[N+](=O)[O-])c3cccs3)c(-c3ccccc3)[nH]c2c1 (single isomer, unassigned; (+))
Resp: 0.251

---

target under test: Cannabinoid receptor 1 (Homo sapiens, UniProt P21554)
Sequence (P21554 whole entry): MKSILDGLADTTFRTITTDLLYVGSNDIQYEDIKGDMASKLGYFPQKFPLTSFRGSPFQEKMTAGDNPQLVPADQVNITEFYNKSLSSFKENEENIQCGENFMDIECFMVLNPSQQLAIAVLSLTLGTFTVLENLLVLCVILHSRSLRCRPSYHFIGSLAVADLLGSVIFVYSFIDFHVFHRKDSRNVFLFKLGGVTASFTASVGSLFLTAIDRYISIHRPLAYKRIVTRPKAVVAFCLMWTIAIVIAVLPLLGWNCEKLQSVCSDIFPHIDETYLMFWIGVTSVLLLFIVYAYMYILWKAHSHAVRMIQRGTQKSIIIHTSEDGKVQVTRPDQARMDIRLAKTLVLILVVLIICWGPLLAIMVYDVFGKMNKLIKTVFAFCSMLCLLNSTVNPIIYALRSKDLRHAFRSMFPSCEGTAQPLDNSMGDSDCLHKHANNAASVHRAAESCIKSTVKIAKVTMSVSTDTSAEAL
method description: Agonist activity at human CB1 receptor expressed in CHOK1 cells assessed as induction of beta-arrestin recruitment measured after 30 mins by PathHunter assay
Assay type: cell-based
Field: pEC50. Provide a value for each of the compounds that follow.
Scale explanation: pEC50 corresponds to minus log10 of a concentration expressed in moles per litre.

Req: Requested read-out: pEC50. Entry: N#Cc1ccc2c(C(CC(F)(F)F)c3cccs3)c(-c3ccccc3)[nH]c2c1 (racemic)
Resp: 6.19

Req: Would you kindly repeat that for FC(F)(F)CC(c1cccs1)c1c(C2CCCC2)[nH]c2cc(C(F)(F)F)ccc12 (racemic) ?
Resp: 6.12

Req: What would you report for O=[N+]([O-])CC(c1cccs1)c1c(-c2ccccc2)[nH]c2cc(C(F)(F)F)ccc12 (racemic) ?
Resp: 6.01

Req: Thanks! And N#CCC(c1ccccc1)c1c(-c2ccccc2)[nH]c2cc(Cl)ccc12 (racemic) ?
Resp: 5.63

Req: Then this compound: CC(=O)c1ccc2c(C(CC(F)(F)F)c3cccs3)c(-c3ccccc3)[nH]c2c1 (racemic)
Resp: 6.13

Req: Then N#Cc1ccc2c([C@H](CC(F)(F)F)c3cccs3)c(-c3ccccc3)[nH]c2c1 ?
Resp: 5.92

Req: Field entry: N#Cc1ccc2c([C@@H](CC(F)(F)F)c3cccs3)c(-c3ccccc3)[nH]c2c1
Resp: 6.08

Req: Input Cc1ccc2c(C(C[N+](=O)[O-])c3cccs3)c(-c3ccccc3)[nH]c2c1 (racemic)
Resp: 6.11

Req: How about O=[N+]([O-])CC(c1cccs1)c1c(-c2ccccc2)[nH]c2cc(Cl)ccc12 (racemic) ?
Resp: 5.82

Req: Same again, this time with FC(F)(F)CC(c1cccs1)c1c(-c2ccccc2)[nH]c2cc(C(F)(F)F)ccc12 (racemic)
Resp: 6.10
